test: small-molecule microarray binders of probe aEGFR, primary screen, biochemical, biotinylated probe, 635/667 nm fluorescence (AID 1097); details: higher = more signal;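 also: probe is a biotinylated anti-EGFR antibody binding compounds printed on slides; score combines fluorescence near 667 nm and signal to noise of each spot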
So basically: composite z-score at -0.08 or higher? That is MET. Lower than -0.08? That is NOT MET.

[[record]]
compound = "CC1CC/C=C\\[C@H]2OC34C=CCN(Cn5nnc6ccccc65)C(=O)[C@H]3N(CCO)C(=O)[C@@H]4C2C(=O)O1 (stereo partly drawn)"
class_assignment = "NOT MET"

[[record]]
compound = "COC(=O)[C@H](C)NC(=O)CCC1CC(OC(=O)NCCc2ccc(F)cc2)CC2(CCCC(COC(=O)NCC(c3ccccc3)c3ccccc3)O2)O1 (stereo partly drawn)"
class_assignment = "NOT MET"

[[record]]
compound = "CC(CCN1CCCCc2nc(C)c(C)cc21)=NOC(C)CN1CCCCc2nc(C)c(C)cc21 (stereo not drawn)"
class_assignment = "MET"

[[record]]
compound = "C[C@H](c1ccccc1)N1C(=O)[C@H]2[C@H]3[C@H](O)[C@H](O)CC(=O)[C@@H]3CC[C@H]2C1=O"
class_assignment = "MET"

[[record]]
compound = "O=C1[C@H]2[C@H]3[C@H](O)[C@H](O)CC(=NOC[C@@H](O)COCc4ccco4)[C@H]3CC[C@H]2C(=O)N1Cc1ccc2c(c1)OCO2"
class_assignment = "MET"

[[record]]
compound = "CCCCC(=C=CC[C@H](O)c1ccccc1OCCO)C[C@H](O)COCc1ccccc1"
class_assignment = "NOT MET"

[[record]]
compound = "CC(C)(C)N1CC=CC23O[C@@H]4C=CCCOC(=O)C4[C@H]2C(=O)N(CCCCCO)[C@@H]3C1=O (stereo partly drawn)"
class_assignment = "MET"


Reference for the values: PubChem BioAssay
